assay: soluble on expression in E. coli; label from the status in PepcDB or PDB records
measuredQuantity: soluble on expression in E. coli

- EKALSKQYLQTAKDKITSLKNLKVIAITGSFGKTSTKNFLLQILQTTFNAHASPKSVNTLLGLANDINQNLDDRSEIYIAEAGARNKGDIKEITCLIEPHLVVVAEVGEQHLEYFKTLENICETKAELLDSKRLEKAFCYSVEKIKPYAPKDSPLIDYSSLVKNIQSTLKGTSFEMLIGSVWERFETKVLGEFSAYNIASAILIAKHLGLETERIKRLVLELNPIAHRLQLLEVNQKIIIDDSFNGNLKGMLEGIRLASLHKGRKVIVTPGLVESNTESNEALAQKIDGVFDVAIITGELNSKTIASQLKTPQKILLKDKAQLENILQATTIQGDLILFANDAPNYI: not soluble
- MVLRAKLLSWQEGVGSKTFEFDVDVEPRSYVISKVSQLSPIIASEDLTVCEGEVAVVGTRVIEIPENTVVRPVAAISHANGFVADVIECGAPGMVEDEKCINHAVFIPTRSGDVKEGDLLGMLRINFVRTGLLSRVILEHHHHHH: not soluble

###

assay: soluble on expression in E. coli; label from the status in PepcDB or PDB records
measuredQuantity: soluble on expression in E. coli

* MIKVAIIGAENVGKSTLMNALLGGKFSEVSETPGTTKGIIKRAFGKIKLPKTMKNPFGGADELVLIDTAGLFDPEKEIRGKVLSEEKFKELIKEIVNADVIIHMIDATKGLHRGMEKLHYMLKFRYEKPIIVVINKIDLVSREELERLRELVKKRLEQEPILLSLVTYEGFNELLKALTYYAQYVE | soluble
* GPGSMPPAPAPPFSSVSQCLSALLPPTAFSLLPLTHTHTHTHTHRTCTHIIFSEPHIVFYCVCPFTRCHRRRPLPSPLSLSLPQHTTLSTAINKHEAEVVLDWSMSRLARALAKPFTVPVAMCTRHVAAMDEPLKRHIDAYAARGEDITIAVWREYVDGQRALLPYRWTKFRSEVAYLTSGQMAITDLTFADLLVFIRFLTKCLFIFIVAVMVGRRSVFPSLEPTSPFVEEIVKNWQPNRLHGVAGAEYMACDQAAAAGYGHR | soluble
* MQQNIRIQKNQYDTATHPTASSTTWKYVTYDETSETFGMSEQVADPCNHCPKPRNYNSECKDEDVEKHFEKVMPCVHTYTIIYGNVHHLPNHPIIRNLRHNHY | soluble

###

test: soluble on expression in E. coli; label from the status in PepcDB or PDB records
measuredQuantity: soluble on expression in E. coli

* MGSDKIHHHHHHMRSNNNNPLTRDEILSRYFPQYRPAVATSQGLSGGSCIIAHDTHRVVLRRHHDPDAPPAHFLRHYRALSQLPASLAPRALFYTPGWMAVEYLHGVVNSALPDADELAALLYHLHQQPRFGWRIALSPLLAQYWSCCDPARRTPFWLRRLKQLQKNGEPRPLRLAPLHMDVHGDNIVLTSAGLRLIDWEYAGDGDIALELAAVWVEDERQHRQLADAYAARARIDARQLWRQIRLWHPWVIMLKAGWFEYRWRQTGEQQFIRLADETWRQLRMKG | not soluble
* MASQTQGIQQLLAAEKRAAEKINEARKRKLQRTKQAKQEAQAEVEKYKQQREAEFKAFEQQYLGTKEDIESKIRRDTEDQISGMKQSVAGNKQAVIVRLLQLVCDIKPELHHNLTLQKKLHGQFAA | not soluble

###

assay: soluble on expression in E. coli; label from the status in PepcDB or PDB records
measuredQuantity: soluble on expression in E. coli

* MPTITTKTPVKGLIFNIQKFSINDGPGIRTVVFFKGCPLRCKWCSNPESQSGEQESMYDEQTAKQTIVGDYMTVDDIMKVILQDKDFYEESGGGVTFSGGEVLFQASFAIELAKAVKAAGINLACETTGYARPKVFNEFMSYMDFMYYDCKQWDPAQHRIGTGADNGVILRNLATAVQAHQKMMVRIPVIPGFNYTLNDADHFGQLFNQIGVTEVELLPFHQFGLKKYQDLGRKYALVNVKQLQADDLIDYAEHIRAHGVKVRVNGW | not soluble
* HDYLMKGNLSRLVPAIERELREADERRRRRQAEEAMHAQFNQISTIFDSLNALVYVVDMNSYELLYLNKFGAQLFGEAWEGRTCHDVLHGGRSTPCDFCTNDKLIMDGKALPPYIWEYQNSISSRWYQCIDKAIRWTD | not soluble
* MGTMRIAFQGTAGAYSEEALLKVFPEAKPVGFPTFHQVFEAVEAGEAELGVVPVENTTAGSINQTYDLLLESDLHVVGEIVHRVEHCLLAPKGTTLKDLHAVKSHPQALAQCDGFLARMRLTPIPVFDTAGAAKELAEHPEPGLAAIASRRAAELYGLEVLAENIEDYPHNYTRFFVIGHKEPPRGQGPYKTSIVFAVRHRPGGLLEALSVFAEAGVNLTKLESRPRRDKPFSYLFYLDLEGHLEDPGPAQALLRLLRRVAFLKVLGSYPAHANGGVSAP | soluble
* MSLKPEEIVEGLLSGNRRALARAITYVENEYPESKEIMRQIFAKTGRAHVVGLTGFPGVGKSTLVSKLTEEFRRRGKKVGIIAIDPGSPFTGGALLGDRLRLDGMDSRKQLWTDPGIFFRSMSSRGRAGGLAAKTGDVVRLLDAFGFDVILVETVGAGQSEVDIIEVADTSVVVMMPETGDEIQVNKAGILEIGDIYVVNKADLGGAEKVERWLRYMLSLDEESVQMLSQMTHADEARVQSGEFFERRKGWNPPVIKTVADRGEGIKELADAIEEHFDYMKKTGLIEKRRRERVKRELFEIVMNDVIKLVKEKTNYRDLLVKLLKGETDPYTAAEQIVEEVIHNAGKGEGHHHHHH | soluble

###

assay: soluble on expression in E. coli; label from the status in PepcDB or PDB records
measuredQuantity: soluble on expression in E. coli

- MGSDKIHHHHHHMVPMTRFDSATEVVRVGENRYAVELDPGYLIGTAMNGGYLMTVLQRSALAESDHLHAVSSSYHFHRPASSGPAEIETRVLKRGRTVTTVQTTLFQEGRTILTGTLATATLDPHAEPRYAAPQPAIPPQHQCRRVDPRQSHLPDDGFLARVDVDFSPDSYAALARERTVTTPELCGYVDLSARDGGSAKDPLAFLPLAVDALPPIVSLLVDWSWAPTVELTWHLRAIPEPGPLAFRSTCALVSDGWFDENVDLWDARGRLVAQSRQLARVGR: not soluble
- MKLDLIQSMLYNNPKPQDTKEGLSDQDFSIYMDAHTVPFSKYPSYMPAGVLGICTEGNAEIQVGLRKYVICANDILIFMPGFLVSFIKSSPTFTIDYCTFSNVLFYDVINGSIKRFPTGFHTYTQTHCVYSLSQEKAEQFSIYFRLLYNRATSPTYLFTKESITNLLKLPFLELYADYYSTVKEHKVTTLHKEEIGYFFLDLLLKHYKENKEVAFYAEKLHVSSKYLTEALTLVSGKSPKEWIIHYTLQEIYALLENPSISIQEIVQRTRFANLATLRRFFKRHTGTSLLQYRKQDLYKNNQ: not soluble
- GWNECNDKLRDISRSFWRGDQGYLKEFATRLMGSRDIYSAANWPYKLTVNYITYHDGFTLQDLVSYKHKHNEANGEENRDGHGDNRSENYGVEGETENIMIIATREKQKRNLIASLLFAFGIPHILTADVLSHSQDGNNNAYCQDNKTSWINWSETERKAHFKTWMAQMVANRHQYMVPFIRAFSGENRNNNRIFWRRTDGRLMEHDDWNRLSSVALHLGIGKDGQELVYLINQTNATARFKLPNERNQEWVTICDTNVRNLNPGHAEGEVLLSPTSMVILHYQPKPNSPQGEQLQS: not soluble

###

test: soluble on expression in E. coli; label from the status in PepcDB or PDB records
measuredQuantity: soluble on expression in E. coli

• MDPSSENNSPMVSPNDDKIVKITVSSVMQGVKQIVVEMKDKETVSILKNRIEQETEVLTNRQVLLFKGMELKDNNKTMTDCGINSDAKITMNVKMSTGIVTNPTTTDILLMMPPIFPTNQDQLRKEIKGMHTVHRKPKKMSGIDANASLWTPEKQMENEFTRNRMKTLLRRKKHAPILSGTPVDSEIGSAQTFSPVATPPGELSSPSTVSSHVSSGSEPESDAEVVTEKELKLFFDPPETIEEHKQCRRSMVLAPSSEEELLENLKKFEAERKTKCNTCFKKLSAAQQTMHCKCLRIFCDRHRHPKNHTCVIDYKQDGRNKLKKNNSKVGDGGWRKAKFES = not soluble
• SVPIVSAWEKGMEAARALMDKYHVDNDLKANFKLLPDQVEALAAVCKTWLNEEHRGLQLTFTSNKTFVTMMGRFLQAYLQSFAEVTYKHHEPTGCALWLHRCAEIEGELKCLHGSIMINKEHVIEMDVTSENGQRALKEQSSKAKIVKNRWGRNVVQISNTDARCCVHDAACPANQFSGKSCGMFFSEGAKAQVAFKQIKAFMQALYPNAQTGHGHLLMPLRCECNSKPGHAPFLGRQLPKLTPFALSNAEDLDADLISDKSVLASVHHPALIVFQCCNPVYRNSRAQGGGPNCDFKISAPDLLNALVMVRSLWSENFTELPRMVVPEFKWSTKHQYRNVSLPVAHSDARQNPFDF = soluble
• MLKKLSPIFSNITGVVRYQDLAYVASVSDEIQEQNIAHSYVTEWDCGTWCVAGEDDDMLPWEIVSATVVHEPVEQALFLGARGQVFCMGSGDIHEEQLPDGDDAIGGRGNMRGVACIDGVAYACGMDRQVYRRFDENDWRAIDTGARPPAGSEAVVGFEAIGGFGAREIYAVGWDGEIWQYDGKRWQPRESPTNLILTAICCAEDGSVYACGQAGTLLRGRNDHWEIIAQDDVDEDLWSLAWFDGALYVSSATAVYTLVGGHLKEVDFGDEQPQRCFHLSAADGVLWSIAAKDIFSFDGQQWTRID = not soluble
• MSKTAAITIDTPGADDFEPHRRHLYGLAYRMLGSWSEAEDIVQETWLRWREIDPATLDNARAFLSRIATRLCLDVLKSARVRRQVYVGPWLPEPLPDAQAYAGAAPGEIAHDVSVALMLALERLSASERAAFLLHDVFDVPFAEIAGTLGRTEAGCRQLAARARNRVRESRPRFAVEESEGIRLARAFIDAAQHGDVDVLRQLLADDAVLHSDGGGKKLAFMRPILGRANIVRAFAGLARKGQSDLSSVRIVQLNGMPAIYGIERDGLPRTISLGVCGGRIVRVYIMRNPDKLAHLARFTG = not soluble
• MSLGYATAHRRVRHLSADQVITRPETLAVEEPLEIRVNGTPVTVTMRTPGSDFELVQGFLLAEGVVAHREDVLTVSYCGRRVEGNATGASTYNVLDVALAPGVKPPDVDVTRTFYTTSSCGVCGKASLQAVSQVSRFAPGGDPATVAADTLKAMPDQLRRAQKVFARTGGLHAAALFGVDGAMLAVREDIGRHNAVDKVIGWAFERDRIPLGASVLLVSGRASFELTQKALMAGIPVLAAVSAPSSLAVSLADASGITLVAFLRGDSMNVYTRADRITEGHHHHHH = soluble
• MAHHHHHHMLPFSYRVLMRGVSAVSGALSVALQHRALAGTTRSFSSSRPVWLAPAAPTKQAPPAMGGDTDAEETHPDFQPRMVSSDLAQDEIAMIKKDIDDTIRDEDVVVFIKGVPEAPMCAFSKRMIDVMEALGVEYTSFDVLAHPVVRSYVKEVSEWPTIPQLFVKGEFAGGVDIILKMAESGDLQMLLDQKSIKHRDTKP = soluble
